# TESTED_TARGET: human serum albumin (human) (UniProt P02768)
# Sequence (P02768 25-609 limits assumed): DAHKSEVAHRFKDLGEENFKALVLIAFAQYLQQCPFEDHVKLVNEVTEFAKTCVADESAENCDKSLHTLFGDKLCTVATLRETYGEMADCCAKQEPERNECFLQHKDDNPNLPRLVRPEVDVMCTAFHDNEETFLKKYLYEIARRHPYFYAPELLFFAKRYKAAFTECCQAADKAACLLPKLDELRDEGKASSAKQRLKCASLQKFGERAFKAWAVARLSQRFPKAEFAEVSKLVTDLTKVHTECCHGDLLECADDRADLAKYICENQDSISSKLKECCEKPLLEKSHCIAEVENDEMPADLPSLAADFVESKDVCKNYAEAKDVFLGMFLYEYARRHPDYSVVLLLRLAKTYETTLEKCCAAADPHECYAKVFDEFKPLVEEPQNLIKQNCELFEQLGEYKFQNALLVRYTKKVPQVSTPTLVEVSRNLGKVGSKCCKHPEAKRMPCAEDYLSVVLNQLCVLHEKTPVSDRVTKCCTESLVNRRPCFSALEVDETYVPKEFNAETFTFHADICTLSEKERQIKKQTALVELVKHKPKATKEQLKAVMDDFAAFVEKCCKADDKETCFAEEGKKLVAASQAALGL
# EXPERIMENT_SUMMARY: primary solution ELISA screen
# reported RLU; entries follow
Write the number in RLU without appending the unit.

| BINDER | OBSERVED |
| --- | --- |
| SEQ ID NO 64 (designed binder, not shown: small tags and cut ends) MLPAPKNLVVSRVTEDSARLSWTAPDAAFDSFYIVYAEPIPNGEAIVLTVPGSERSYDLTGLKPGTEYSVLIHGVKGGRNSDPLSAIFTT | 6000 |

Output RLU of SEQ ID NO 85 (designed binder, not shown: small tags and cut ends) MLPAPKNLVVSRVTEDSARLSWTAPDAAFDSFIIEYFEPIPIGEAIVLTVPGSERSYDLTGLKPGTEYAVNIYGVKGGYLSHPLSAIFTT
6350
